- TARGET_OR_TEST_SYSTEM: ACAT (Rattus norvegicus)
- Sequence (Q7TQM4 whole entry): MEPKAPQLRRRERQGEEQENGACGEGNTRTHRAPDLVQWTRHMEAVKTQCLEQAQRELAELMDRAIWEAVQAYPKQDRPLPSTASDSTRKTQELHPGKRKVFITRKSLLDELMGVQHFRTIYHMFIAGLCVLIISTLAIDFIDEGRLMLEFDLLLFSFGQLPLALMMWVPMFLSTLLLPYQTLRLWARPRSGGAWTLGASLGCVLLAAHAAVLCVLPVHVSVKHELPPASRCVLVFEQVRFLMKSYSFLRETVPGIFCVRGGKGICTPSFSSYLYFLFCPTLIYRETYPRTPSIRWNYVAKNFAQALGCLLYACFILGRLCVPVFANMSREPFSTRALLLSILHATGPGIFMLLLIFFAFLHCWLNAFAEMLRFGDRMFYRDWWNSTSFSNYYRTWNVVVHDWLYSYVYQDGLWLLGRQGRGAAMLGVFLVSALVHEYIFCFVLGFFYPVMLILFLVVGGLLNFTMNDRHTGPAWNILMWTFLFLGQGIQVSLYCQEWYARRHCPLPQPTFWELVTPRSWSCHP
pIC50: −log10 of the molar value.
Decide using pIC50: a value greater than or equal to 7 is rule met, a smaller one is rule not met.

Previously resolved entries follow.
{"SMILES_INPUT": "CCCN(CCCC(=O)Nc1c(SC)nc(C)nc1C(C)C)c1ccccc1", "ASSIGNED_CATEGORY": "rule met"}
{"SMILES_INPUT": "CCCCCCN(CCCC(=O)Nc1c(SCCC)nc(C)nc1N(CC)CC)c1ccccc1", "ASSIGNED_CATEGORY": "rule met"}
{"SMILES_INPUT": "CCCCCCCN(CCCC(=O)Nc1c(S)nc(C)nc1N(CC)CC)Cc1ccccc1", "ASSIGNED_CATEGORY": "rule not met"}
{"SMILES_INPUT": "CCCN(CC(=O)Nc1c(S)nc(C)nc1N(CC)CC)c1ccccc1", "ASSIGNED_CATEGORY": "rule not met"}
{"SMILES_INPUT": "CCCN(CCCC(=O)Nc1c(SC)nc(C)nc1N(CC)CC)c1ccccc1", "ASSIGNED_CATEGORY": "rule met"}

Dear colleague, could you confirm whether `CCCN(CCCC(=O)Nc1c(SCc2ccccc2)nc(C)nc1N(CCC)c1ccccc1)c1ccccc1` has pIC50 at or above 7? rule not met

What about this compound? `CCCCN(CCCC)c1nc(C)nc(OC)c1NC(=O)CCCCN(CCC)c1ccccc1` rule met
